Values were extracted from the supplement of paper PMC12645437.

The reader will find reported log2 fold change of degron read counts values listed item by item below.
Target: T1, CRBN, Q96SW2;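 further: pooled lentiviral library of zinc finger degron-EGFP fusions in mCherry-positive Jurkat cells, FACS-sorted after compound exposure, with degron abundance counted by next-generation sequencing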
T1 chain: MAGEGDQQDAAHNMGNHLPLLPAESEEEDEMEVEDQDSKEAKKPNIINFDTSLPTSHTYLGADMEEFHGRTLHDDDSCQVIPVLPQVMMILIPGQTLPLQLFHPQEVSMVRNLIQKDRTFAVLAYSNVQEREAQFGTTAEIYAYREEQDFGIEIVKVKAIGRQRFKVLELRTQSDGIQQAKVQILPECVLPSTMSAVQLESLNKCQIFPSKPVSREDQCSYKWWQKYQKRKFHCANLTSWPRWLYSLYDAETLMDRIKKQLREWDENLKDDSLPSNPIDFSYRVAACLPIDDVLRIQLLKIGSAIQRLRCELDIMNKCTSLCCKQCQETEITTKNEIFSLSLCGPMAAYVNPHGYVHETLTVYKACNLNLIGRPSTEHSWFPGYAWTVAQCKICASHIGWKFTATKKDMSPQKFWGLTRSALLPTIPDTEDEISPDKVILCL
Assay: log2 fold change of degron read counts, EGFP-low vs EGFP+ sorted cells (limma voom), compound-induced degradation; higher = more compound-induced degradation of the degron-EGFP fusion; degrons are variants of IKZF1/3 zinc finger 2; compound dose not given here
Settings: Jurkat; 18 h; compound: compound 22 (5-morpholino-thalidomide)
The full ranking holds about 8,300 sequences; the median of “log2 fold change of degron read counts, EGFP-low vs EGFP+ sorted cells (limma voom), compound-induced degradation” is about -1.1, and the highest 2% start at about 3.2. This excerpt belongs to a sample that is enriched for the highest values.
Respond numerically, and do not add a unit to the figure.

Worked examples follow.
> print(dat)
                                   residues                          assay.endpoint  value.measured
1  LDCEICGFNCTQKGNLLRHIKL [46L_47D_49E_50I_52G_53F_54N_55C_67L_, Q9UKT9]  log2 fold change of degron read counts           -2.54
2  LDCEICGFSCTQKGNLLRHIKL [46L_47D_49E_50I_52G_53F_54S_55C_67L_, Q9UKT9]  log2 fold change of degron read counts           -1.04
3  FTCNQCGAIFTQKGNLLRHIKL [46F_47T_49N_50Q_52G_53A_54I_55F_67L_, Q9UKT9]  log2 fold change of degron read counts           -2.59
4  LSCEICGFSCTQKGNLLRHIKL [46L_47S_49E_50I_52G_53F_54S_55C_67L_, Q9UKT9]  log2 fold change of degron read counts            2.53
5  LNCEICGFSCTQKGNLLRHIKL [46L_47N_49E_50I_52G_53F_54S_55C_67L_, Q9UKT9]  log2 fold change of degron read counts         -0.0234

Query: Fill in the blank: the reported log2 fold change of degron read counts of FKCNQCGHRFTQKGNLLRHIKL [46F_47K_49N_50Q_52G_53H_54R_55F_67L_, Q9UKT9] is ____.
Result: -2.52

Query: Fill in the blank: the reported log2 fold change of degron read counts of LLCEICGFSCTQKGNLLRHIKL [46L_47L_49E_50I_52G_53F_54S_55C_67L_, Q9UKT9] is ____.
Result: -0.0296
